- experimental_target: E3 ubiquitin-protein ligase XIAP (Homo sapiens)
- assay_details: XIAP binders, primary screen, biophysical, small-molecule microarray, fluorescence 635 nm (AID 1181);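 also: score merges 667 nm emission and signal to noise over triplicate slides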
- run_conditions: small-molecule microarray binding, higher = more signal
experimental_endpoint: composite z-score
One number for each entry.

molecule | experimental_target | composite z-score
COC(=O)Cn1c(C(=O)N2CCCC2)cc2c1C[C@H]1CN(C(=O)c3ccccc3)[C@@](Cc3ccc(F)cc3)(C(=O)OC)[C@@H]21 | E3 ubiquitin-protein ligase XIAP (Homo sapiens) | 0.303
COc1ccc(C(O)C2C=CC3C(=O)N(C)C(=O)C3N2N2CCCCC2)cc1 (centres undefined) | E3 ubiquitin-protein ligase XIAP (Homo sapiens) | 0.0728

Fill in composite z-score for each of the 2 molecules listed.
1. CN(C)C(=O)[C@@]1(Cc2ccccc2N=[N+]=[N-])COC(c2ccc(OCCCO)cc2)=N1
2. CC(C)NC(=O)[C@@]1(C)c2ccccc2C(=O)N(C(C)C)[C@H]1c1ccc(CO)cc1

Response:
1: 0.194; 2: 0.0982
